tested on: rodent lifetime carcinogenesis bioassay, tumor incidence TD50; assay: carcinogenic potency in animals, long-term in vivo studies, CPDB compilation (AID 1745844); conditions: rat; strain Charles River CD (Sprague-Dawley); females; by gavage; site: cerebrum; lesion: malignant glioma; dosed 46 weeks; study length 60 weeks
PROPERTY_NAME: TD50

Query :: Please supply the value of reported TD50 for the item O=S1(=O)CCCO1
Result :: 4.06 mg/kg/day

---

system: rodent lifetime carcinogenesis bioassay, tumor incidence TD50; assay: carcinogenic potency in animals, long-term in vivo studies, CPDB compilation (AID 1745844); conditions: rat; strain Fischer 344; males; in feed; site: all sites; lesion: leukemia + lymphoma; dosed 110 weeks; study length 111 weeks
PROPERTY_NAME: TD50

Query :: Please supply the value of reported TD50 for the item Nc1ncc([N+](=O)[O-])s1
Result :: 27.6 mg/kg/day

Cited source: PubChem BioAssay AID1745844
